Each item that follows carries a reported protein stability index.
B1: ADAMTS4 (parent)
chain: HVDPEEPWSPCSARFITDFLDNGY

- Variants of: B1
- test_summary: protein stability index of a GFP-peptide fusion (GPS, HEK-293T) (PSI 1-6); higher = more stable;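 also: lentivirally expressed fusions sorted by FACS into six bins by GFP to DsRed ratio, PSI derived from sequencing read proportions per bin multiplied by bin number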
- conditions: c terminus: a fixed tail appended
readout_type: protein stability index

| variant_label | numeric_result |
| --- | --- |
| N22H | 1.62 |
| H1F | 3.17 |
| S9I | 2.29 |
| D3T | 2.04 |
| S12W | 1.67 |
| E6W | 2.57 |
| D3P | 1.85 |
| R14T | 1.83 |
| F19P | 3 |
| F15Y | 2.01 |
| T17D | 1.81 |
| T17G | 1.71 |
| N22V | 1.94 |
| N22R | 1.7 |
| P4M | 1.77 |
| H1C | 2.17 |
| G23Y | 2.02 |
| W8D | 3.66 |
| P4H | 2.21 |
| L20Y | 2.14 |
| G23H | 2.12 |
| V2Q | 2.16 |
